assay: clinical; conditions: human, in vivo, 50 mg/m2
Experimental endpoint: Cmax (nM)
Just the number please, in nM, no unit attached.

What value of Cmax has been recorded for this entry: `C=CCn1c(=O)c2cnc(Nc3ccc(N4CCN(C)CC4)cc3)nc2n1-c1cccc(C(C)(C)O)n1` 356

---

assay: clinical; details: human, in vivo, 200 mg/m2, Cmax
Experimental endpoint: Cmax
Give the number first and the unit second.

What value of Cmax has been recorded for this entry: C=CCn1c(=O)c2cnc(Nc3ccc(N4CCN(C)CC4)cc3)nc2n1-c1cccc(C(C)(C)O)n1 [adavosertib] 2020 nM

---

assay: clinical; settings: human, in vivo, 130 mg/m2
Experimental endpoint: AUC
Give the number first and the unit second.

What value of AUC has been recorded for this entry: `C=CCn1c(=O)c2cnc(Nc3ccc(N4CCN(C)CC4)cc3)nc2n1-c1cccc(C(C)(C)O)n1` 7.21 µM·h

---

Test: clinical
Settings: human, in vivo, 160 mg/m2
Protocol: Pharmacokinetic parameters were calculated using noncompartmental methods[20] using Phoenix® WinNonlin® Version 8.1 (WinNonlin version 8.1.03530, Pheonix 64; Pharsight Corporation, Mountain View, CA). […] Oral steady-state clearance (ClSS/F) was calculated using the equation, ClSS = Dose/AUCτ.
Experimental endpoint: half-life (h)
Just the number please, in h, no unit attached.

What value of half-life has been recorded for this entry: `C=CCn1c(=O)c2cnc(Nc3ccc(N4CCN(C)CC4)cc3)nc2n1-c1cccc(C(C)(C)O)n1` 4.8

---

assay: clinical; conditions: human, in vivo, 95 mg/m2, Tmax
Experimental endpoint: Tmax (h)
Just the number please, in h, no unit attached.

What value of Tmax has been recorded for this entry: `C=CCn1c(=O)c2cnc(Nc3ccc(N4CCN(C)CC4)cc3)nc2n1-c1cccc(C(C)(C)O)n1` 1.9

---

assay: clinical; conditions: human, in vivo, 200 mg/m2
Experimental endpoint: half-life (h)
Just the number please, in h, no unit attached.

What value of half-life has been recorded for this entry: C=CCn1c(=O)c2cnc(Nc3ccc(N4CCN(C)CC4)cc3)nc2n1-c1cccc(C(C)(C)O)n1 [adavosertib] 5.6

---

experiment: clinical; details: human, in vivo, 130 mg/m2
Experimental endpoint: Cmax (nM)
Just the number please, in nM, no unit attached.

What value of Cmax has been recorded for this entry: C=CCn1c(=O)c2cnc(Nc3ccc(N4CCN(C)CC4)cc3)nc2n1-c1cccc(C(C)(C)O)n1 [adavosertib] 821

---

Experiment: clinical
Details: human, in vivo, 200 mg/m2
Description: Pharmacokinetic parameters were calculated using noncompartmental methods[20] using Phoenix® WinNonlin® Version 8.1 (WinNonlin version 8.1.03530, Pheonix 64; Pharsight Corporation, Mountain View, CA). […] Oral steady-state clearance (ClSS/F) was calculated using the equation, ClSS = Dose/AUCτ.
Experimental endpoint: AUC(0-inf) (µM·h)
Just the number please, in µM·h, no unit attached.

What value of AUC(0-inf) has been recorded for this entry: `C=CCn1c(=O)c2cnc(Nc3ccc(N4CCN(C)CC4)cc3)nc2n1-c1cccc(C(C)(C)O)n1` 12.2

---

test: clinical; conditions: human, in vivo, 95 mg/m2
Experimental endpoint: AUC(0-inf) (µM·h)
Just the number please, in µM·h, no unit attached.

What value of AUC(0-inf) has been recorded for this entry: C=CCn1c(=O)c2cnc(Nc3ccc(N4CCN(C)CC4)cc3)nc2n1-c1cccc(C(C)(C)O)n1 [adavosertib] 6.03
